Where these numbers come from: paper PMC3627579

# tested.on: T1, TRBP-D12 (Homo sapiens, UniProt Q15633 19-228)
# T1 sequence: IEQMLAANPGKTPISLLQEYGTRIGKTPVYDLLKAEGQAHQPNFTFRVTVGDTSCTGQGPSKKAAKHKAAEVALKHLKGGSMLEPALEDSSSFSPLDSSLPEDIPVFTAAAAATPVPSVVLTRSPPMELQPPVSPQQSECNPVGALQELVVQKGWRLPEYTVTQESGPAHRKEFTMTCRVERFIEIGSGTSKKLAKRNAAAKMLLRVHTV
# protocol.description: ITC

{"columns": ["binder", "unit.of.measure", "Kd"],
 "data": [
  ["miR-155/miR-155* (dsRNA) RNA 1: GGAAUGCUAAUCGUGAUAGGCCU RNA 2: GGCCUACAUAUUAGCAUUCCCA", "nM", 1000]
]}
